Where these numbers come from: PubChem BioAssay (NCI)

Test system: T-47D breast
EXPERIMENTAL PROTOCOL: NCI tumour cell line growth inhibition, 384-well format
Can you tell me GI50 for the items I'm about to list?

**Query** Please look up its GI50: `Cn1cc(-c2ccc3nnc(Sc4ccc5ncccc5c4)n3n2)cn1`
**Result** > 100 µM

**Query** Likewise for `Cc1nc2ccc(NC(=O)CCNC(=O)CCCc3ccc(CC(C(=O)O)C(=O)O)cc3)cc2s1` ?
**Result** > 100 µM

**Query** Field entry: `C=CC(=O)Nc1cc(N2CCN(CC)CC2)ccc1Nc1cc(N(C)C(=O)Nc2c(Cl)c(OC)cc(OC)c2Cl)ncn1`
**Result** 1.31 µM

**Query** Do the same for `CCN(c1cc(-c2ccc(CN3CCOCC3)cc2)cc(C(=O)NCc2c(C)cc(C)[nH]c2=O)c1C)C1CCOCC1` please
**Result** > 100 µM
